Molecular target: T1, C-terminally FLAG-tagged human Gas6 recombinant protein (hGas6-F) (human, UniProt Q14393 31-678, gamma-carboxylated glutamic acid residues in the Gla domain (producer cells co-express rat VKOR and human GGCX); positions not given)
T1 construct: also called human Gas6-F; human Gas6 protein
T1 sequence: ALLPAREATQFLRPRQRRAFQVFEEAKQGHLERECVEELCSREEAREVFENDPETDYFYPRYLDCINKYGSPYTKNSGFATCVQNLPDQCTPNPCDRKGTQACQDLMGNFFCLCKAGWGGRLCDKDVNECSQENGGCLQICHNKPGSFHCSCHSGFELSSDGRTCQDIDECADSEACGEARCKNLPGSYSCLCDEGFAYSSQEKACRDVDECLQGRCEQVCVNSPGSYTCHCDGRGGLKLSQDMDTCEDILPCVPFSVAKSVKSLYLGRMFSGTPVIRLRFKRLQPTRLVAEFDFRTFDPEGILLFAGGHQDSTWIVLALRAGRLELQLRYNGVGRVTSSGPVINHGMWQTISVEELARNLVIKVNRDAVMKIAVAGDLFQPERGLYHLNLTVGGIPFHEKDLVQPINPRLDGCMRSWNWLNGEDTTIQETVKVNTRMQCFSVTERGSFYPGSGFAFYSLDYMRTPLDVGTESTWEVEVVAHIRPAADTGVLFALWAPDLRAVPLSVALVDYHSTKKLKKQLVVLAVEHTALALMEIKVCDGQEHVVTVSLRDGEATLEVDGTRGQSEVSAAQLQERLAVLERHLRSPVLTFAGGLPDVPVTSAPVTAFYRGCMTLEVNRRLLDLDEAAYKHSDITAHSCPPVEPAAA
Experiment: SPR Biacore T100, captured antibody, Gas6 analyte, first test
Reported values of Kd for individual entries
recorded.endpoint: Kd

binder	result
hzKM5320 LV1aHV8 antibody (antibody, V domains shown, Humanized; variant human IgG4 constant region (EU S228P, L235E, R409K), human kappa; also called A-11) VH: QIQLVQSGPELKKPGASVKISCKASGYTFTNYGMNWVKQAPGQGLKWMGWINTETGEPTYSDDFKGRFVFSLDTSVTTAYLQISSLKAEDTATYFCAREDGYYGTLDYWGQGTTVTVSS VL: DVVMTQSPDSLAVSLGERVTINCKASQSVSNDVAWYQQKPGQSPKLLIYYASNRYTGVPDRFSGSGSGTDFTLTISSLQAEDVAVYFCQQDYSSPWTFGQGTKLEIK	< 9.64 nM
hzKM5320 LV2aHV0 antibody (antibody, V domains shown, Humanized; variant human IgG4 constant region (EU S228P, L235E, R409K), human kappa; also called A-05) VH: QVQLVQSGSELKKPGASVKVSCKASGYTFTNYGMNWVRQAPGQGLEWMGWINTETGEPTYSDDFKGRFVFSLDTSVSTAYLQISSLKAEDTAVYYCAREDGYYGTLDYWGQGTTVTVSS VL: DVVMTQSPDSLAVSLGERVTINCKASQSVSNDVAWYQQKPGQSPKLLIYYASNRYTGVPDRFSGSGSGTDFTLTISSVQAEDVAVYFCQQDYSSPWTFGQGTKLEIK	< 15.2 nM
